Recorded EC50 values (ATP-dependent translocase ABCB1 (Homo sapiens, UniProt P08183)) are given below.
quantity: EC50 (µM)

(1) Cc1ccc(OC[C@H](O)CN2CCN(c3ccccc3C)CC2)c(C(=O)CCc2ccccc2)c1
(2) CC(=O)c1ccccc1OC[C@H](O)CN1CCCCC1
QUERY: Look at 1 and 2 . Which one has the lower recorded EC50 number? Let me know the label of the one you choose.
RESULT: 1

(I) Cc1ccccc1N1CCN(C[C@@H](O)COc2cc(Cl)c(Cl)cc2C(=O)CCc2ccccc2)CC1
(II) CC(=O)c1ccccc1OC[C@H](O)CN1CCC(Cc2ccccc2)CC1
(III) CN[C@H]1c2cc(C#N)ccc2OC(C)(C)[C@@H]1O
QUERY: Rank ascending by EC50. Answer format: the labels, in the requested order.
RESULT: I, II, III
(I: 0.017 µM, II: 0.355 µM, III: 309 µM)

(P) O=C(CCc1cccc2ccccc12)c1ccc(OC[C@H](O)CN2CCOCC2)cc1
(Q) O=C(CCc1cccc2ccccc12)c1ccc(OC[C@H](O)CN2CCN(c3ccc(F)cc3)CC2)cc1
(R) CC(C)N(C[C@@H](O)COc1ccc(C(=O)CCc2cccc3ccccc23)cc1)C(C)C
(S) CC1(C)Oc2ccc(C#N)cc2[C@@H](NCc2ccccc2)[C@@H]1O
(T) Cc1c(C(=O)c2cccs2)c(=O)n(-c2ccccc2)n1C[C@H](O)CNC(C)C
QUERY: Hello, I need these entries ordered by EC50, highest reading first. Thanks! Answer format: the labels, in the requested order.
RESULT: T, S, P, Q, R

###

# system: ATP-dependent translocase ABCB1 (Homo sapiens, UniProt P08183)
# Sequence (P08183 whole entry): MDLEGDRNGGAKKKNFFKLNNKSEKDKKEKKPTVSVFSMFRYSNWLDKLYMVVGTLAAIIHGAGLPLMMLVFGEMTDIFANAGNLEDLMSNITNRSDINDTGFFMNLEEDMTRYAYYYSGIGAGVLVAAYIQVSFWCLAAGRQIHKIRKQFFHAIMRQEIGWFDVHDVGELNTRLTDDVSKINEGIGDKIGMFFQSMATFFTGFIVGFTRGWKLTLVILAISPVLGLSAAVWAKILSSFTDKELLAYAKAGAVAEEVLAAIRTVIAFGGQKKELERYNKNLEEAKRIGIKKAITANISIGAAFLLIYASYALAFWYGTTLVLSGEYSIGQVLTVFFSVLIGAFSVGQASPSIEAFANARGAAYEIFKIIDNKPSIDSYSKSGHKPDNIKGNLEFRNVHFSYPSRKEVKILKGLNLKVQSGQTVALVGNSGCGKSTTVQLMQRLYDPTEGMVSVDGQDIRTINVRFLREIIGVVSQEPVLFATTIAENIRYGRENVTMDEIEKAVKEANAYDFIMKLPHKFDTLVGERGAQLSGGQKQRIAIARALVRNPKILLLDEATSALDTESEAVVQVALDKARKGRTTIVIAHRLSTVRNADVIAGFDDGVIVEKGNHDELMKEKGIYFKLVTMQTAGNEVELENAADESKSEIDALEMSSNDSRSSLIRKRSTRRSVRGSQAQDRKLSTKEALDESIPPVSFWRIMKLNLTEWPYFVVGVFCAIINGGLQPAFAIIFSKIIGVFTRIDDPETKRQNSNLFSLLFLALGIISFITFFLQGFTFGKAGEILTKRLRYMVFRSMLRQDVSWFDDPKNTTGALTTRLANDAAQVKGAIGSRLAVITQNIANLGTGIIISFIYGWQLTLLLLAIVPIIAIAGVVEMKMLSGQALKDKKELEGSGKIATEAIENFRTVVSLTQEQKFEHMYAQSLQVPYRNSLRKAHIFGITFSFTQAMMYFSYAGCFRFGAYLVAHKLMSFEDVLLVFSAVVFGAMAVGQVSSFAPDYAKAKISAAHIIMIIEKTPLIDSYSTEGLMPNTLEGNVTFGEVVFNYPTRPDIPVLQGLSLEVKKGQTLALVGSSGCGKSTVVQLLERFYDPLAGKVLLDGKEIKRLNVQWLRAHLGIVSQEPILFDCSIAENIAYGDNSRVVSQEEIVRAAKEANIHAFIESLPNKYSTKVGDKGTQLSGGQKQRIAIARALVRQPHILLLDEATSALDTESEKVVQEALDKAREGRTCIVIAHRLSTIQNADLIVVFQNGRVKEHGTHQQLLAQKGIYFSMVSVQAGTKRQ
quantity: EC50 (µM)

[
  {
    "structure.as.smiles": "CC1(C)Oc2ccc(C#N)cc2[C@H](N(CCO)Cc2ccccc2)[C@H]1O",
    "EC50 (µM)": 5.37
  },
  {
    "structure.as.smiles": "O=C(CCc1cccc2ccccc12)c1ccc(OC[C@H](O)CN2CCCCC2)cc1",
    "EC50 (µM)": 0.263
  }
]

(A) CC(C)[C@@H](CO)N(C)[C@@H]1c2cc(C#N)ccc2OC(C)(C)[C@H]1O
(B) Cc1ccc(NC(=O)N2CCN(C[C@@H](O)COc3ccccc3C(=O)c3ccccc3)CC2)cc1
QUERY: Could you kindly indicate whether A or B has the higher EC50 value? Let me know the label of the one you choose.
RESULT: A
(A: 5.5 µM, B: 0.479 µM)

(A) CCC(=O)c1ccccc1OC[C@H](O)CN1CCC(O)(c2ccccc2)CC1
(B) O=C1C[C@H](CN2CCOCC2)Oc2ccccc21
(C) O=C(CCc1ccccc1)c1cccc(OC[C@H](O)CN2CCOCC2)c1
(D) O=C1CCc2c(OC[C@H](O)CN3CCCCC3)cccc21
QUERY: Hello, I need these entries ordered by EC50, highest reading first. Thanks! Answer format: the labels, in the requested order.
RESULT: B, D, C, A

(1) CC(C)N(C[C@@H](O)COc1ccccc1C(=O)CCc1cccc2ccccc12)C(C)C
(2) O=C1c2c(cccc2OC[C@H](O)CN2CCOCC2)C[C@@H]1Cc1ccccc1
QUERY: Look at 1 and 2 . Which one has the lower recorded EC50 number? Let me know the label of the one you choose.
RESULT: 2

###

# system: ATP-dependent translocase ABCB1 (Homo sapiens)
quantity: EC50 (µM)

(a) CC(C)(C)[C@@H](NC[C@@H](O)COc1ccccc1C(=O)CCc1ccccc1)c1ccccc1
(b) CC(C)C(CO)N(C)[C@H]1c2cc(C#N)ccc2OC(C)(C)[C@@H]1O (some centres undefined)
QUERY: Could you kindly indicate whether a or b has the higher EC50 value? Let me know the label of the one you choose.
RESULT: b
(b: 6.92 µM, a: 0.295 µM)

###

# system: ATP-dependent translocase ABCB1 (Homo sapiens, UniProt P08183)
pEC50: −log10 of the molar value.
quantity: pEC50

These solved cases illustrate the format of a correct answer.
[
  {
    "compound": "O[C@@H](COc1ccccc1[C@H](O)CCc1ccccc1)CN1CCCCC1",
    "measurement": 6.07
  },
  {
    "compound": "CC1(C)Oc2ccc(C#N)cc2C(NCc2ccccc2)C1O (stereo not given)",
    "measurement": 4.12
  },
  {
    "compound": "c1ccc(CC[C@H]2c3ccccc3O[C@H]2CN2CCCCC2)cc1",
    "measurement": 5.79
  }
]

(P) O=C(CCc1cccc2ccccc12)c1ccccc1OC[C@H](O)CN1CCN(c2ccc(F)cc2)CC1
(Q) COc1ccccc1N1CCN(C[C@@H](O)COc2ccccc2C(=O)CCc2ccccc2)CC1
QUERY: Could you kindly indicate whether P or Q has the higher pEC50 value? Let me know the label of the one you choose.
RESULT: P

###

Recorded EC50 values (ATP-dependent translocase ABCB1 (Homo sapiens, UniProt P08183)) are given below.
quantity: EC50 (µM)

[
  {
    "molecule": "CC(=O)c1ccc(OC[C@H](O)CN2CCCCC2)cc1",
    "system": "ATP-dependent translocase ABCB1 (Homo sapiens, UniProt P08183)",
    "units.label": "µM",
    "EC50": 49
  },
  {
    "molecule": "C[C@H]1c2ccccc2O[C@H]1C(=O)N1CCCCC1",
    "system": "ATP-dependent translocase ABCB1 (Homo sapiens, UniProt P08183)",
    "units.label": "µM",
    "EC50": 105
  },
  {
    "molecule": "Cc1cccc(N2CCN(C[C@@H](O)COc3ccc(C(=O)CCc4ccccc4)cc3)CC2)c1C",
    "system": "ATP-dependent translocase ABCB1 (Homo sapiens, UniProt P08183)",
    "units.label": "µM",
    "EC50": 0.229
  },
  {
    "molecule": "O[C@H](COc1ccccc1[C@H](O)CCc1ccccc1)CN1CCCCC1",
    "system": "ATP-dependent translocase ABCB1 (Homo sapiens, UniProt P08183)",
    "units.label": "µM",
    "EC50": 1.51
  },
  {
    "molecule": "CC1(C)Oc2ccc(C#N)cc2[C@@H]2NC(Cc3ccccc3)C(=O)O[C@H]21 (some centres undefined)",
    "system": "ATP-dependent translocase ABCB1 (Homo sapiens, UniProt P08183)",
    "units.label": "µM",
    "EC50": 257
  },
  {
    "molecule": "O=C(CCc1ccccc1)c1ccccc1OC[C@H](O)CN1CCOCC1",
    "system": "ATP-dependent translocase ABCB1 (Homo sapiens, UniProt P08183)",
    "units.label": "µM",
    "EC50": 3.63
  },
  {
    "molecule": "CN(CCN(C)S(=O)(=O)c1cccc2c(N(C)C)cccc12)C[C@@H](O)COc1ccccc1C(=O)c1ccccc1",
    "system": "ATP-dependent translocase ABCB1 (Homo sapiens, UniProt P08183)",
    "units.label": "µM",
    "EC50": 1.82
  },
  {
    "molecule": "CCC(=O)c1ccccc1OC[C@H](O)CN1CCN(c2ccc(F)cc2)CC1",
    "system": "ATP-dependent translocase ABCB1 (Homo sapiens, UniProt P08183)",
    "units.label": "µM",
    "EC50": 0.832
  }
]

(A) Cc1ccccc1N1CCN(C[C@@H](O)COc2ccccc2C(=O)CCc2ccc(Cl)c(Cl)c2)CC1
(B) COc1ccc(N2CCN(C[C@@H](O)COc3cccc4c3C(=O)[C@@H](Cc3ccccc3)C4)CC2)cc1
(C) O[C@@H](COc1ccccc1[C@@H](O)CCc1ccccc1)CN1CCN(Cc2ccccc2)CC1
(D) Cc1cccc(N2CCN(C[C@@H](O)COc3ccccc3[C@@H](O)CCc3ccccc3)CC2)c1C
(E) CN(C)C[C@@H](O)COc1ccccc1C(=O)CCc1ccccc1
QUERY: Hello, I need these entries ordered by EC50, highest reading first. Thanks! Answer format: the labels, in the requested order.
RESULT: E, B, C, D, A
(E: 2.45 µM, B: 0.389 µM, C: 0.186 µM, D: 0.0832 µM, A: 0.038 µM)

(A) COc1ccc(C(=O)CCc2ccccc2)c(OC[C@H](O)CN2CCCCC2)c1
(B) CO[C@H](CCc1ccccc1)c1ccccc1OC[C@H](O)CN1CCCCC1
(C) CC1(C)Oc2ccc(C#N)cc2[C@H]2[C@H]1OCCN2Cc1ccccc1
(D) Cc1c(C(=O)CCc2ccccc2)c(=O)n(-c2ccccc2)n1C[C@H](O)CNC(C)(C)C
QUERY: Rank ascending by EC50. Answer format: the labels, in the requested order.
RESULT: B, A, D, C
(B: 0.174 µM, A: 0.295 µM, D: 7.76 µM, C: 19.5 µM)
